SUBJECT OF TEST: T1, CD25 (as used on the Carterra LSA) (Homo sapiens (Human), UniProt P01589 22-240)
T1 sequence: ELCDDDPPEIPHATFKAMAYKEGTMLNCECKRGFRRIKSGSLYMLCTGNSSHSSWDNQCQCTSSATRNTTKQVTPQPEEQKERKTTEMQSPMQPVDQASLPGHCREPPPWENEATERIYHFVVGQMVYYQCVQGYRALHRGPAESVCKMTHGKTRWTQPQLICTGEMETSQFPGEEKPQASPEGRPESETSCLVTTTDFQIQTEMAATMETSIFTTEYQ
EXPERIMENT SUMMARY: Carterra LSA binding kinetics
Readings of kon for the listed binders
Note: unit M⁻¹ s⁻¹ is implicit; provide only the numeric part.

Recorded results for 3 binders are shown here.
• IBIO-101-plant-WT (SD-889825-PW-A; IBIO-101, wild-type plant) (antibody, human IgG1, kappa, V domains shown, Same antibody made in wild-type Nicotiana benthamiana plants; also called RTX-003; hD11) VH: QVQLVQSGAEVKKPGASLKISCKGSGYTFTDYAMHWVRQAPGQGLEWIGVISTYSGDAIYAQKFQGRATMTVDTSTSTAYLELSSLRSEDTAVYYCARGVTFDYWGQGTTVTVSS VL: DIQMTQSPSSLSASVGDRVTITCRASQDISNYLEWYQQKPGKAPKLLVYNAKTLAEGVPSRFSGSGSGTDFTLTISSLQPEDFGTYYCQHHYDTPYTFGQGTKLEIKR = 485000
• IBIO-101-plant-afuc (SD-889825-PC-A; IBIO-101, c-105 plant Afucosylated) (antibody, human IgG1, kappa, V domains shown, Same antibody made in C105 deltaXT/FT N. benthamiana plants, glycans without fucose and xylose; also called RTX-003; hD11) VH: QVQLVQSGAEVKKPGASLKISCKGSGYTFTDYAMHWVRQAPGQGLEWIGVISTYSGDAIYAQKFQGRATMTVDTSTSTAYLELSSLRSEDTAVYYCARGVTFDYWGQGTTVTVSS VL: DIQMTQSPSSLSASVGDRVTITCRASQDISNYLEWYQQKPGKAPKLLVYNAKTLAEGVPSRFSGSGSGTDFTLTISSLQPEDFGTYYCQHHYDTPYTFGQGTKLEIKR = 492000
• IBIO-101-CHO-WT (SD-889825-CW-A; IBIO-101, wild-type CHO cells) (antibody, human IgG1, kappa, V domains shown, The signal peptide is marked only by bold print (lost here); also called RTX-003; hD11) VH: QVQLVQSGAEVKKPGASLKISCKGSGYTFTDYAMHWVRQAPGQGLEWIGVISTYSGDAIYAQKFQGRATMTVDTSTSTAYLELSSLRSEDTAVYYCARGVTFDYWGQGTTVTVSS VL: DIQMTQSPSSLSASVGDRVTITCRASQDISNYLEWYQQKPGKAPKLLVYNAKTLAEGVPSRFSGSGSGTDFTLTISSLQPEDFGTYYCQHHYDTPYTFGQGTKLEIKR = 471000

Next binder, please.
Data request: Using the record for IBIO-101-CHO-afuc (SD-889825-CG-A; IBIO-101, CHO cells Afucosylated) (antibody, human IgG1, kappa, V domains shown, Same antibody made in CHO cells, afucosylated glycans; also called RTX-003; hD11) VH: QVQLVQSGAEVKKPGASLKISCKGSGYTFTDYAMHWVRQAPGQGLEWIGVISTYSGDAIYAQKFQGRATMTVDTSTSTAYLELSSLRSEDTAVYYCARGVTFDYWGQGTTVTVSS VL: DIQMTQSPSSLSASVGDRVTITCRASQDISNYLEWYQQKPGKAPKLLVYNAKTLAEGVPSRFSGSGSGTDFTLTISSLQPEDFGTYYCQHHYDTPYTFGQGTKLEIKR , report its kon.
Data returned: 499000
